Task for the reader: assign each of the following variants its reported protein stability index.
B1: ZBED2 (parent)
chain: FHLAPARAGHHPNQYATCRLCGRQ

# Variants of: B1
# procedure_text: protein stability index of a GFP-peptide fusion (GPS, HEK-293T) (PSI 1-6); higher = more stable;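 also: lentivirally expressed fusions sorted by FACS into six bins by GFP to DsRed ratio, PSI derived from sequencing read proportions per bin multiplied by bin number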
# conditions: c terminus: a fixed tail appended
Answers are plain numbers.

The cases that follow already have their protein stability index on record.
# sequence_change, obs_value
measured = [
    ("C18E", 3.08),
    ("A16P", 2.4),
    ("G22I", 2.08),
]

List reported protein stability index for each of these variants:
1. C18W
2. A8S
3. R19G
4. G9F
5. C21S
6. R7P
7. H2M

[1.97, 1.76, 2.11, 1.77, 3.43, 1.92, 2.43]

List reported protein stability index for each of these variants:
1. Q24L
2. N13Y
3. H11C

[2.19, 1.55, 2.12]

List reported protein stability index for each of these variants:
1. T17C
2. R19F
3. Q14S
4. C18I
5. P5R
6. P12H
7. F1W

1: 1.68; 2: 1.64; 3: 1.48; 4: 2.17; 5: 1.64; 6: 3.06; 7: 1.59

List reported protein stability index for each of these variants:
1. A4K
2. A16N
3. H10R
4. G22P
5. C18Y
6. F1N

1. 2.32
2. 2.38
3. 1.21
4. 2.92
5. 1.93
6. 2.73

List reported protein stability index for each of these variants:
1. R7Q
2. G9N
3. Q24F
4. T17F

1: 1.93; 2: 2.11; 3: 3.46; 4: 2.23

List reported protein stability index for each of these variants:
1. F1P
2. F1K
3. A4I
4. A6L
5. A4Q

[3.07, 2.53, 2.53, 1.67, 1.91]

List reported protein stability index for each of these variants:
1. A4S
2. Q24H
3. L20M

1: 2.74; 2: 2; 3: 1.94

List reported protein stability index for each of these variants:
1. Q14K
2. R7S
3. H10F
4. T17P
5. R7I
6. R19N

1. 2.58
2. 1.4
3. 1.9
4. 1.69
5. 1.55
6. 1.52
